Tested on: HCT-15 colon
Experiment description: NCI-60 one-dose screen, 48 h (100 = growth as untreated, 0 = no growth, -100 = all killed)
Stated conditions: 10 µM unless noted
Protocol: Growth inhibition of the HCT-15 human tumor cell line is measured as a screen for anti-cancer activity. Cells are grown in 96 well plates and exposed to the test compound for 48 hours. Compounds are tested at a single concentration, which is 10^-5 M for most compounds. The reported endpoint is percent growth (GI% or GIPRCNT), where numbers from 0 - 100% represent growth inhibition, and numbers from -100% - 0 represent cell death. For example, a value of 40 represents 60% growth inhibition. […]
Compounds without any hit were thinned out: in the full panel of roughly 83,000, 20% have a hit.
Each record here notes measured growth.
Write the number in % without appending the unit.

These recorded examples may help you get a feel for the data.
N#Cc1c(-c2ccc(F)cc2)cc(-c2cccc(Cl)c2)[nH]c1=O: 58.1
C=CCNc1ccc2c3c(cccc13)C(=O)N(CC=C)C2=O: 97.4

In: For the compound "COC12C=C/C(=C(/C(=O)OCc3ccccn3)C(=O)CCCCCCCCC3(OC)C=C/C(=C(/C(=O)OCc4ccccn4)C(=O)CCCCCCCC1)O3)O2" , give its measured growth value.
Out: -37.5

In: For the compound "Cc1csc(Nc2nc(-c3cccc(Cl)c3)nc(C(Cl)(Cl)Cl)n2)n1" , give its measured growth value.
Out: 53.9

In: For the compound COc1c(O[C@@H]2OC(CO)[C@H](O)[C@H](O)C2O)cc2oc3cc(O)c(CC=C(C)C)c(O)c3c(=O)c2c1CC=C(C)C (stereo partly drawn) , give its measured growth value.
Out: 97.9

In: For the compound "COc1cc(-c2c(-c3ccccc3)c[nH]c2C(=O)NCCCO)c(OC)c2c1OCO2" , give its measured growth value.
Out: 107

In: For the compound "COc1ccccc1NC(=O)n1c(=O)cc(C)c2ccc(O)cc21" , give its measured growth value.
Out: 104

In: For the compound "Cc1nn(-c2ccccc2)c(Oc2ccccc2)c1/C=N/NC(=O)Cn1c(=O)sc2ccccc21" , give its measured growth value.
Out: 56.7

----------
System: COLO 205 colon
Experiment description: NCI-60 one-dose screen, 48 h (100 = growth as untreated, 0 = no growth, -100 = all killed)
Stated conditions: 10 µM unless noted
Compounds without any hit were thinned out: in the full panel of roughly 83,000, 20% have a hit.
Observable: growth (%)
Write the number in % without appending the unit.

These recorded examples may help you get a feel for the data.
C#CC#CC#CC#CC#CC#CC#CC#CC[C@@H]1OC[C@H](COC(=O)O[C@@H](C(=O)O[C@H]2C[C@@]3(O)[C@@H](OC(=O)c4ccccc4)[C@@H]4[C@]5(OC(C)=O)CO[C@@H]5C[C@H](O)[C@@]4(C)C(=O)[C@H](OC(C)=O)C(=C2C)C3(C)C)[C@@H](NC(=O)c2ccccc2)c2ccccc2)O1: 18.7
CC/C(=C(/c1ccc(Cl)cc1)c1ccc(OCCN(CC)CC)cc1)c1ccc(OC)cc1: 22.2
N/C(=N\c1nc2ccccc2s1)NC(=O)Nc1ccccc1: 28.3
COC(=O)[C@@H](Cc1c[nH]c2ccccc12)NC[C@@H](O)CN1C(=O)/C(=C\c2cc(OC)c(OC)c(OC)c2)c2ccccc21: 73.8
COc1ccc(-c2ccc(-c3ccc(C(=N)N)o3)o2)cc1: -45.8
Cc1cccc(CN(Nc2ccccc2)c2ccccc2)n1: 111
O=C1OCC2=C1C(c1cccc(F)c1)c1cc3c(cc1N2CCO)CCC3 (stereo not drawn): -25.6

# input for lookup
In: Specify the recorded growth for "CN1CCN(Cc2ccc(NC(=O)c3cncc(C#Cc4c(N)ncc5cc(F)ccc45)c3)cc2C(F)(F)F)CC1" , system: COLO 205 colon.
Out: -20.5

// provenance: PubChem BioAssay (NCI)
